target: HLA-A*23:01; assay: IEDB peptide-MHC binding, purified MHC/competitive/radioactivity; filed as Kd, often an IC50 or EC50 that approximates it; bounds were set here for any values at or beyond the usual limits of such assays; conditions: source organism: SARS coronavirus Tor2
Consider the following sequences; for each one, report its Kd.

IN: Would you mind telling me what Kd value was observed for KSFEIDKGIY ?
OUT: ≥ 70 µM

IN: Next entry: LTNDNTSRY
OUT: ≥ 77.8 µM

IN: Next entry: FDEISMATNY
OUT: ≥ 70 µM

IN: Next entry: LTDDMIAAY
OUT: ≥ 77.8 µM

IN: Next entry: FSGALDTTSY
OUT: ≥ 70 µM

IN: Next entry: HFAIGLALYY
OUT: ≥ 60.9 µM

IN: Next entry: RVDFCGKGY
OUT: ≥ 77.8 µM

IN: Next entry: DNAFNCTFEY
OUT: ≥ 70 µM

IN: Next entry: CKDGHVETFY
OUT: ≥ 70 µM

IN: Next entry: LLEKCDLQNY
OUT: ≥ 70 µM
